# test-system: GRK5 (Homo sapiens)
# Sequence (P34947 whole entry): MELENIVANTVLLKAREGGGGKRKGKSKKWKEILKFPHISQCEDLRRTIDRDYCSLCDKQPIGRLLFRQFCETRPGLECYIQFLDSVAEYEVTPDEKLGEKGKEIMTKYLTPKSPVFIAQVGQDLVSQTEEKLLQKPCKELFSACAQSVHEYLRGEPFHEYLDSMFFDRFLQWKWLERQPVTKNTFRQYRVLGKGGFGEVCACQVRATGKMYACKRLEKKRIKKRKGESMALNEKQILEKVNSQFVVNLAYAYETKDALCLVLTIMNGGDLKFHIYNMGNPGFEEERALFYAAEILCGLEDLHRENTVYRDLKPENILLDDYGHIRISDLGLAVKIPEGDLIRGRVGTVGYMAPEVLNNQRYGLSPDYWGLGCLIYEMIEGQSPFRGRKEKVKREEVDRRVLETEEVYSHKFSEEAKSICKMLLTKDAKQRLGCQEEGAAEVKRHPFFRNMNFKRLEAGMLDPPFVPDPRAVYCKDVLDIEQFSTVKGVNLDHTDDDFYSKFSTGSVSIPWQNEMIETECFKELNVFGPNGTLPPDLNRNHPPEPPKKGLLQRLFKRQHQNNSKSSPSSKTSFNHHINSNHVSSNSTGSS
# method-summary: GRK5 phosphorylation of light-activated rhodopsin
# Format: biochemical
pIC50: −log10 of the molar value. Ends that are not written are not given here.
measured-endpoint: pIC50

Incoming: Reported pIC50, substance Ac-FFDRFLQWKWLER-NH2 [Peptide T1] : ____
Outgoing: 4.62

Incoming: Reported pIC50, substance MELENIVANTVLLKAR-NH2 [N-Ter] : ____
Outgoing: 5.00 to 5.30

Incoming: Reported pIC50, substance Ac-ILENLKDCGLF-NH2 [TCT, reference compound] : ____
Outgoing: ~5.00

###

# test-system: GRK7 (Homo sapiens, UniProt Q8WTQ7)
# Sequence (Q8WTQ7 whole entry): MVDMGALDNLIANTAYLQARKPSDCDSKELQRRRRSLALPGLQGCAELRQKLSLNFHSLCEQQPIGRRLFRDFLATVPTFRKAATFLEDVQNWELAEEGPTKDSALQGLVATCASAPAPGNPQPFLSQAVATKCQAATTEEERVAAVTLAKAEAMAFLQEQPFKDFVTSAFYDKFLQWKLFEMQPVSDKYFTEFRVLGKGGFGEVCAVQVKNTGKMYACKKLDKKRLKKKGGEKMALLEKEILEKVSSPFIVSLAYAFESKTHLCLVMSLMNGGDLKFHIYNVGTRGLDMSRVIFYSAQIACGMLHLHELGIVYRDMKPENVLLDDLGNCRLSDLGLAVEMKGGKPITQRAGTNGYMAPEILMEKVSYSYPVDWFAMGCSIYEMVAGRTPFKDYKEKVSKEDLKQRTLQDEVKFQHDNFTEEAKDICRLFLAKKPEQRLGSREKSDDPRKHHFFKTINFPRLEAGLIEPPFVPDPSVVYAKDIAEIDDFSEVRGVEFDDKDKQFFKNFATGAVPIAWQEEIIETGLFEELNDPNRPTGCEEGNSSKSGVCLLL
# method-summary: GRK7 phosphorylation of light-activated rhodopsin
# Format: biochemical
pIC50: −log10 of the molar value. Ends that are not written are not given here.
measured-endpoint: pIC50

Incoming: Reported pIC50, substance MELENIVANTVLLKAR-NH2 [N-Ter] : ____
Outgoing: 5.00 to 5.30

Measured values drawn from paper PMC4269301 for this set.
